# Experiment notes: cytotoxicity in Drosophila l(2)mbn cells
# Format: cell-based
# Condition context: Drosophila, l(2)mbn cells (larval blood cell-derived), 0.2 µM, replicate 2, relative to DMSO 1%, read-out: % viability, viability 2
Property label: viability at 0.2 µM (%)
Answers are plain numbers, in %.

Please report viability at 0.2 µM for every entry that follows.
1. C=C1CCC2C(C)(CC(=O)C=C(C)C)C(O)CCC2(C)C1Cc1c(OC)oc(C)c(C)c1=O (stereo not drawn)
2. C=C1CCC2C(C)(CCC=C(C)C)C(O)CCC2(C)C1Cc1c(OC)oc(CO)c(C)c1=O (stereo not drawn)
3. C=C1CC[C@@H]2[C@](C)(CC[C@H]3O[C@H](C=C(C)C)C[C@@]23C)[C@@H]1Cc1c(O)c(C)c(C)oc1=O
4. C=C1CCC2C(C)(CC(=O)C=C(C)C)C(O)CCC2(C)C1Cc1c(O)c(C)c(C)oc1=O (stereo not drawn)

## Result
1: 134; 2: 139; 3: 125; 4: 135

Please report viability at 0.2 µM for every entry that follows.
1. C=C1CC[C@H]2[C@]3(C)C[C@@H](C=C(C)C)O[C@H]3CC[C@]2(C)[C@@H]1Cc1c(OC)oc(CO)c(C)c1=O
2. C=C1CCC2C(C)(CCC=C(C)C)C(O)CCC2(C)C1Cc1c(O)c(C)c(C)oc1=O (stereo not drawn)
3. C=C1CC[C@H]2[C@]3(C)C[C@@H](C=C(C)C)O[C@H]3CC[C@]2(C)[C@@H]1Cc1c(O)c(C)c(C)oc1=O
4. C=C1CCC2C(C)(CCC=C(C)C)C(=O)CCC2(C)C1Cc1c(O)c(C)c(C)oc1=O (stereo not drawn)
5. C=C1CCC2C(C)(CCC=C(C)C)C(O)CCC2(C)C1Cc1c(OC)oc(CO)c(C(=O)OC)c1=O (stereo not drawn)

## Result
95.4
95.4
17
91.3
139

###

Assignment: determine reported Th-T fluorescence, mean of three wells for the given molecules.
# Tested system: Aβ42 (Homo sapiens, UniProt P05067)
# Sequence (P05067 672-713): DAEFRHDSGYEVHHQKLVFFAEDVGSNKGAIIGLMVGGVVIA
# Experiment notes: Th-T (thioflavin-T) assay of Aβ42 aggregation
# Assay type: biochemical
# Condition context: Supplementary Fig. 47; reading M137
Numbers only.

// solved cases for Th-T fluorescence, mean of three wells follow
C=C1CCC2C(C)(CCC=C(C)C)C(O)CCC2(C)C1Cc1c(O)c(C)c(C)oc1=O (stereo not shown) [Compound 4] ... 2.732
C=C1CCC2C(C)(CCC=C(C)C)C(O)CCC2(C)C1Cc1c(O)c(C)c(C)oc1=O (stereo not shown) [Compound 9, higginsianin B] ... 2.782
C=C1CCC2C(C)(CCC=C(C)C)C(O)CCC2(C)C1Cc1c(OC)oc(C)c(C)c1=O (stereo not shown) [Compound 11] ... 3.327
C=C1CC[C@H]2[C@]3(C)C[C@H](C=C(C)C)O[C@H]3CC[C@]2(C)[C@@H]1Cc1c(O)c(C)c(C)oc1=O ... 3.021
C=C1CC[C@H]2[C@]3(C)C[C@@H](C=C(C)C)O[C@H]3CC[C@]2(C)[C@@H]1Cc1c(O)c(C)c(C)oc1=O ... 2.698

Please report Th-T fluorescence, mean of three wells for every entry that follows.
1. C=C1CCC2C(C)(CC(=O)C=C(C)C)C(O)CCC2(C)C1Cc1c(OC)oc(CO)c(C)c1=O (stereo not shown)
2. C=C1CC[C@H]2[C@]3(C)C[C@H](C=C(C)C)O[C@H]3CC[C@]2(C)[C@@H]1Cc1c(OC)oc(CO)c(C)c1=O

## Result
3.599
3.774

Attribution: paper PMC7156458
